Target: catalytic domain of human Bub1 (amino acids 704-1085) (Homo sapiens (Human))
Experiment: Bub1 kinase assay (TR-FRET)
Type: biochemical
Details: TR-FRET, 10 μM ATP, 1 μM peptide substrate; read-out: Biological Assay 1: Bub1 kinase assay median IC50
quantityMeasured: IC50 (µM)
Provide the reading as a plain figure in µM.

Answered cases to consult:
- CCOc1cc(F)c(Cn2nc(-c3ncc(OC)c(Nc4ccncc4)n3)c(Cl)c2C)c(F)c1 [Example 2-2-3]: 0.01
- CCOc1cc(F)c(Cn2nc(-c3ncc(OC)c(Nc4ccncc4)n3)c(C)c2C#N)c(F)c1 [Example 2-2-12]: 0.1
- CCOc1cc(F)c(Cn2nc(-c3ncc(OC)c(Nc4ccncc4)n3)c(Br)c2C)c(F)c1 [Example 2-2-4]: 0.024
- CCOc1cc(F)c(Cn2nc(-c3nccc(Nc4ccncc4C(=O)NC)n3)c(Cl)c2C2CC2)c(F)c1 [Example 2-1-1]: 0.0047

Provide one value: measured IC50 of CCOC(=O)c1cnccc1Nc1ccnc(-c2nn(Cc3c(F)cc(OCC)cc3F)c(C3CC3)c2Cl)n1 [Example 2-2-2]
0.037

Provide one value: measured IC50 of CCOc1cc(F)c(Cn2cc(Cl)c(-c3ncc(OC)c(Nc4ccncc4)n3)n2)c(F)c1 [Example 2-2-5]
0.033

Provide one value: measured IC50 of CCOc1cc(F)c(Cn2cc(N(C)C)c(-c3ncc(OC)c(Nc4ccncc4)n3)n2)c(F)c1 [Example 2-2-10]
0.25

Provide one value: measured IC50 of CCOc1cc(F)c(Cn2nc(-c3ncc(OC)c(Nc4ccncc4)n3)c(F)c2C)c(F)c1 [Example 2-2-6]
0.041

* * *

Target: catalytic domain of human Bub1 (amino acids 704-1085) (Homo sapiens (Human), UniProt O43683)
Sequence (O43683 704-1085): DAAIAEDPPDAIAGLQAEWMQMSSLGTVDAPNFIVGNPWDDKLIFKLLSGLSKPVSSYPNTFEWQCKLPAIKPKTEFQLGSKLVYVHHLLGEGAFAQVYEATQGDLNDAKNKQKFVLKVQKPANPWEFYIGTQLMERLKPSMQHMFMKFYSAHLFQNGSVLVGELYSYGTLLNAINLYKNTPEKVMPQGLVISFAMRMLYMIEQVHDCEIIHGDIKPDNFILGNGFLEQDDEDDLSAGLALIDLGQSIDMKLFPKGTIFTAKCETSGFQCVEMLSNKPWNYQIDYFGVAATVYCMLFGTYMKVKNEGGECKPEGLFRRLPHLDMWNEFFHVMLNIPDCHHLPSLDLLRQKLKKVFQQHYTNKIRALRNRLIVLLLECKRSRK
Experiment: Bub1 kinase assay (TR-FRET)
Format: biochemical
Settings: TR-FRET, 10 μM ATP, 1 μM peptide substrate; read-out: Biological Assay 1: Bub1 kinase assay median IC50
Parameter IC50: see the listing below.
Provide the reading as a plain figure in nM.

Answered cases to consult:
* CCOC(=O)c1cnccc1Nc1nc(-c2nn(Cc3c(F)cc(OCC)cc3F)c(C)c2F)ncc1OC [Example 2-2-9] | 40
* CCOc1cc(F)c(Cn2nc(-c3ncc(OC)c(Nc4ccncc4C(N)=O)n3)c(F)c2C)c(F)c1 [Example 2-4-5] | 11
* CCOc1cc(F)c(Cn2nc(-c3ncc(OC)c(Nc4ccncc4)n3)c(C)c2Br)c(F)c1 [Example 2-2-11] | 13
* CCOc1cc(F)c(Cn2nc(-c3nccc(Nc4ccncc4C(N)=O)n3)c(Cl)c2C2CC2)c(F)c1 [Example 2-1-2] | 8.1
* CCOc1cc(F)c(Cn2cc(Cl)c(-c3ncc(OC)c(Nc4ccncc4C(N)=O)n3)n2)c(F)c1 [Example 2-4-3] | 7.4

Provide one value: measured IC50 of CCOc1cc(F)c(Cn2cc(Cl)c(-c3ncc(OC)c(Nc4ccncc4C(=O)NC)n3)n2)c(F)c1 [Example 2-4-2]
13

Provide one value: measured IC50 of CCOc1cc(F)c(Cn2nc(-c3ncc(OC)c(Nc4ccncc4C(=O)NC)n3)c(F)c2C)c(F)c1 [Example 2-4-4]
10

Provide one value: measured IC50 of CCOc1cc(F)c(Cn2nc(-c3ncc(OC)c(Nc4ccncc4)n3)c(C#N)c2C)c(F)c1 [Example 2-2-8]
3200

The reported numbers originate from patent US9765058B2.
